Test: chemical genetic growth profiling, strain panel (AID 1159580);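 further: tested at 20 µM; growth read once vehicle control cultures reached saturation at 30 °C; 1 = growth at the plate median or of vehicle wells; lower values mean less growth of the strain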
Conditions: S. cerevisiae deletion strains, growth OD, locus YJL187C, strain SWE1 (second series), hits give low values
About 2,000 (36%) of roughly 5,500 compounds were called active. Roughly 18% stayed inconclusive and do not appear here. This is one part of the list.
Assign normalized growth to each entry below.
Give bare numbers.

Answered examples (2):
Compound: NC[C@H]1O[C@H](O[C@H]2[C@H](O)[C@@H](O[C@H]3O[C@H](CO)[C@@H](O)[C@H](N)[C@H]3O)[C@H](N)C[C@@H]2N)[C@H](N)[C@@H](O)[C@@H]1O
normalized growth: 1.01
--
Compound: C[C@@H](CO)NC(=O)C1C=C2c3cccc4[nH]cc(c34)C[C@H]2N(C)C1 (stereo not given in full)
normalized growth: 1

Record normalized growth for all entries; do not skip any.
1. O=c1c(O)cccc2c(C3Oc4cc(O)cc(O)c4CC3O)cc(O)c(O)c12 (stereo not given)
2. O=C(Oc1ccccc1C(=O)O)c1ccccc1O
3. C[C@H]1O[C@@H](O[C@H]2[C@@H](O)C[C@H](O[C@H]3[C@@H](O)C[C@H](O[C@H]4CC[C@]5(C)C6C[C@@H](O)[C@]7(C)[C@@H](C8=CC(=O)OC8)CC[C@]7(O)C6CC[C@@H]5C4)O[C@@H]3C)O[C@@H]2C)C[C@H](O)[C@@H]1O (stereo not given in full)
4. NCCCCN
5. C[C@H]1O[C@@H](O[C@H]2[C@@H](O)C[C@H](O[C@H]3[C@@H](O)C[C@H](O[C@H]4CC[C@]5(C)C6CC[C@]7(C)[C@@H](C8=CC(=O)OC8)CC[C@]7(O)C6CC[C@@H]5C4)O[C@@H]3C)O[C@@H]2C)C[C@H](O)[C@@H]1O (stereo not given in full)

0.118
0.966
1.02
1.01
0.974

Record normalized growth for all entries; do not skip any.
1. CC(=O)OC1CC[C@@]2(C)C(CCC3C2CC[C@]2(C)C(C4=CC(=O)OC4)C(OC(C)=O)CC32O)C1 (stereo not given in full)
2. C[C@]12CCC3C(CC[C@]4(O)C[C@@H](O)CC[C@]34C=O)[C@@]1(O)CCC2C1=CC(=O)OC1 (stereo not given in full)

1: 0.99; 2: 1.01

Record normalized growth for all entries; do not skip any.
1. C[C@]12CC[C@H](O)C[C@H]1CCC1C2CC[C@]2(C)[C@@H](C3=CC(=O)OC3)[C@@H](O)C[C@]12O (stereo not given in full)
2. CC(C)(C)NCC(O)COc1cccc2c1C[C@H](O)[C@H](O)C2 (stereo not given in full)
3. NCC(O)CC(=O)O (stereo not given)
4. C[C@H]1OC(O[C@H]2[C@@H](O)CC(O[C@H]3[C@@H](O)C[C@H](O[C@H]4CC[C@]5(C)C6CC[C@]7(C)[C@@H](C8=CC(=O)OC8)[C@@H](O)C[C@]7(O)[C@@H]6CC[C@@H]5C4)O[C@@H]3C)O[C@@H]2C)C[C@H](O)C1O (stereo not given in full)
5. CC(=O)Oc1ccccc1C(=O)Oc1ccccc1C(=O)O
6. CO[C@H]1[C@H](O)[C@@H](O[C@H]2CC[C@]3(C=O)C4CC[C@]5(C)[C@@H](C6=CC(=O)OC6)CC[C@]5(O)C4CC[C@@H]3C2)O[C@@H](C)[C@@H]1O (stereo not given in full)

1.04
1.01
1.02
1.02
0.993
0.99
